# Protocol details: physchem
# Assay type: physicochemical
# Measurement conditions: buffer or solvent, pH 7
Reported property: remaining at 720 h, 100 μg/ml (%)
Numbers only; they are read as %.

The examples below pair each entry with its known result.
• H-HSDAVFTDNYTRLRRQLAVRRYLAAILGRR-NH2 [Peptide 12] = 18
• H-HSDAVFTDNYTRLRRQLAVRRYLNSILNGRR-NH2 [Peptide 4, reference compound] = 0
• H-HSDAVFTENYTRLRRQLAVRRYLAAILGRR-NH2 [Peptide 21] = 10

Proceed to the following item.
Return the recorded remaining at 720 h, 100 μg/ml value; entry: H-HSDAVFTANYTRLRRQLAVRRYLAAILGRR-NH2 [Peptide 23]
30

====

# Protocol details: physchem
# Assay type: physicochemical
# Measurement conditions: buffer, pH 7
Overview of recorded remaining at 720 h, 100 μg/ml for various substances
Numbers only; they are read as %.

The examples below pair each entry with its known result.
- H-HSDAVFTANYTRLRRQLAVRRYLAAILGRR-NH2 [Peptide 23]: 73
- H-HSDAVFTENYTRLRRQLAVRRYLAAILGRR-NH2 [Peptide 21]: 59

Proceed to the following item.
Return the recorded remaining at 720 h, 100 μg/ml value; entry: H-HSDAVFTDNYTRLRRQLAVRRYLAAILGRR-NH2 [Peptide 12]
73

====

Overview of recorded remaining at 480 h, 100 μg/ml for various substances
# Protocol details: physchem
# Format: physicochemical
# Measurement conditions: buffer, pH 7

The examples below pair each entry with its known result.
- H-HSDAVFTDNYTRLRRQLAVRRYLNSILNGRR-NH2 [Peptide 4, reference compound]: 13%
- H-HSDAVFTDNYTRLRRQLAVRRYLAAILGRR-NH2 [Peptide 12]: 86%
- H-HSDAVFTANYTRLRRQLAVRRYLAAILGRR-NH2 [Peptide 23]: 89%

Proceed to the following item.
Return the recorded remaining at 480 h, 100 μg/ml value; entry: H-HSDAVFTENYTRLRRQLAVRRYLAAILGRR-NH2 [Peptide 21]
76%

====

# Protocol details: Stability of peptide 4 in distilled water, 40° C., 24 hours (reverse phase HPLC)
# Format: physicochemical
# Measurement conditions: buffer or solvent, pH 5.0, distilled water, 10 μg/ml, 40° C., read-out: Amount of remaining peptide
Reported property: remaining at 24 h
Reply with the number, then its unit.

Return the recorded remaining at 24 h value; entry: H-HSDAVFTDNYTRLRRQLAVRRYLNSILNGRR-NH2 [Peptide 4, reference compound]
90%

====

# Protocol details: Stability of peptide 4 in distilled water, 40° C., 24 hours (reverse phase HPLC)
# Type: physicochemical
# Measurement conditions: pH 7.0, distilled water, 10 μg/ml, 40° C., read-out: Amount of remaining peptide
Reported property: remaining at 24 h, 10 μg/ml

Return the recorded remaining at 24 h, 10 μg/ml value; entry: H-HSDAVFTDNYTRLRRQLAVRRYLNSILNGRR-NH2 [Peptide 4, reference compound]
84%

====

# Protocol details: physchem
# Format: physicochemical
# Measurement conditions: buffer, pH 6
# Experimental: Adequate amounts of peptides 4, 12, 21, and 23 were fractionated via weighing and then dissolved in phosphate buffers (aqueous solution of 0.001% sodium dihydrogen phosphate) adjusted to pH levels of 6.0 and 7.0 to bring the final concentration to 100 μg/ml. […]
Reported property: remaining at 168 h, 100 μg/ml (%)
Numbers only; they are read as %.

The examples below pair each entry with its known result.
• H-HSDAVFTANYTRLRRQLAVRRYLAAILGRR-NH2 [Peptide 23] = 100
• H-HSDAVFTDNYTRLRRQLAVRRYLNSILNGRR-NH2 [Peptide 4, reference compound] = 53
• H-HSDAVFTENYTRLRRQLAVRRYLAAILGRR-NH2 [Peptide 21] = 100

Return the recorded remaining at 168 h, 100 μg/ml value; entry: H-HSDAVFTDNYTRLRRQLAVRRYLAAILGRR-NH2 [Peptide 12]
100
